Test system: gene editing with dCas9
Experiment: Screen of 322 new SSAP proteins, gene editing activity with dCas9 (Table 5)
Type: cell-based
Details: normalized
Quantity kind: dCas9 with SSAP activity (normalized)
One number for each entry.

dCas9 with SSAP activity (normalized) reading for SSAP_30: SEQ ID NO: 199 (protein) EKPKLIQRFAERFSVDPNKLFDTLKATAFKQRDGSAPTNEQMMALLVVADQYGLNPFTKEIFAFPDKQAGIIPVVGVDGWSRIINQHDQFDGMEFKTSETKVSLDGAKECPEWMECIIYRRDRSHPVKITEYLDEVYRPPFEGNGKNGPYRVDGPWQTHTKRMLRHKSMIQCSRIAFGFVGIFDQDEAERIIEGQATHVVEPSVIPPEQVDDRTRGLVYKLIERAEASNAWNSALEYANEHFQGVELTFAKQEIFNAQQQAAKALTQPLAS : −0.795

meta.source: patent US20250034594A1
